target: T1, His-tagged human TFR1 (transferrin receptor 1) protein (human, UniProt P02786 89-760); assay: BLI (Octet) binning; hTFR1-His captured on HIS1K; ratio = binding of analyte 2 / binding of analyte 1; competitor (analyte 1, bound first): 24C9
T1 construct: Bought protein; The order of the tag and the receptor part is not known; also called hTFR1-His; ACROBiosystems Cat #: CD1-H5243; not shown: His tag
T1 sequence (P02786 89-760 limits assumed): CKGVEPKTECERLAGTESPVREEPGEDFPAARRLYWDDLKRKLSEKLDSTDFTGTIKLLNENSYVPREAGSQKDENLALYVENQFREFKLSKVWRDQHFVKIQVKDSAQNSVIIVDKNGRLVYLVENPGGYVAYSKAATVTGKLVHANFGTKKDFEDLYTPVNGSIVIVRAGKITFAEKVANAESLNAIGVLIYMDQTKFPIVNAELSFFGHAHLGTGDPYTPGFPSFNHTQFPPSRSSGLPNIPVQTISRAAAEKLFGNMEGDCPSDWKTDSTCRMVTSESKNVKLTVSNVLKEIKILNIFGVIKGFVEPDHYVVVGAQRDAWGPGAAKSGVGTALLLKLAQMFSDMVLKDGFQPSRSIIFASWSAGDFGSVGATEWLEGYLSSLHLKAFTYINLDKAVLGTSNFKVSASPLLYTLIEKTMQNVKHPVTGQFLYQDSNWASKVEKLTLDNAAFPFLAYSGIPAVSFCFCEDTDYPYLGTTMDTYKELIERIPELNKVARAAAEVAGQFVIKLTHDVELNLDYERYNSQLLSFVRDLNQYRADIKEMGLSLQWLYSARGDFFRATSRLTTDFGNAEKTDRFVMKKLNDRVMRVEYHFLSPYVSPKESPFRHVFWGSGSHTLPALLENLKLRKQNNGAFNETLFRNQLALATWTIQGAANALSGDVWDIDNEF
property.label: binding ratio
Respond using a number only.

binder | binding ratio
23B8 (antibody, V domains shown, Heavy-chain antibody without light chain; also called anti-TFR1 antibody 23B8) VH: QVTLKESGGGLVKPGGSLRLSCAASGFPFSNAWMNWVRQAPGKGLEWVGHIKSKTDGGTTDYAAPVKGRFTISRDDSKNMVFLQMNSLKTEDTAVYYCTTDRAYCGGDCSHYYYHDLDVWGQGTTVTVSS | 1.4
24C9 (antibody, human IgG1, V domains shown, Heavy-chain antibody without light chain; also called anti-TFR1 antibody 24C9) VH: EVQLVQSGGGVVQPGRSLRLSCAASGFTLSSYGMYWVRQAPGKGREWVAFIRFDESKKYYADSVKGRFTISRDNSKNTLYLQMNSLRAEDTAVYYCARDGEGGYCTNGVCHGLDVWGQGTTVTVSS | 0
24A1 (antibody, human IgG1, V domains shown, Heavy-chain antibody without light chain; also called anti-TFR1 antibody 24A1) VH: EVQLVESGGGLVQPGGSLRLTCAASGFTFSSYAMSWVRQAPGKGLERVSEISGSGSSTNYADSVKGRFTISRDNSKNTLYLQMNSLRAEDTAVYYCAKDDSSGWAFNIWDQGTVVTVSS | 0.1
JR141-N (antibody, V domains shown, also called positive control; JR141 VH and VL on human IgG1 N297A) VH: EVQLVQSGAEVKKPGESLKISCKGSGYSFTNYWLGWVRQMPGKGLEWMGDIYPGGDYPTYSEKFKVQVTISADKSISTAYLQWSSLKASDTAMYYCARSGNYDEVAYWGQGTLVTVSS VL: DIVMTQTPLSLSVTPGQPASISCRSSQSLVHSNGNTYLHWYLQKPGQSPQLLIYKVSNRFSGVPDRFSGSGSGTDFTLKISRVEAEDVGVYYCSQSTHVPWTFGQGTKVEIK | 1.1

Please examine the following record next.
Request: binding ratio lookup needed for 24G5 (antibody, human IgG1, V domains shown, Heavy-chain antibody without light chain; also called anti-TFR1 antibody 24G5) VH: QLQLQESGGGLVQPGGSLRLTCAASGFTFSSFAMSWVRQAPGKGLERVSEISDSGGNTYYADSVKGRFTISRDNSKNTLYLQMNSLRAEDTAVYYCAKDDSSGWAFNIWDQGTVVTVSS , thanks.
Response: 0
